System: CH1
experimental protocol: Cytotoxic potency required to inhibit CH1 cell growth by 50%
Assay type: functional, cell-based
condition parameters: Homo sapiens

| entry smiles | measurement qualifier | IC50 / nM |
| --- | --- | --- |
| CN(C)CCNC(=O)c1ccc(N(C)CCN(C)C)c2c(O)c3ccccc3nc12 | = | 3400 |
| O=C(NCCNCCO)c1ccc(NCCNCCO)c2c(O)c3ccccc3nc12 | = | 165 |
| CN(C)CCNC(=O)c1ccc(NCCNCCO)c2c(O)c3ccccc3nc12 | = | 16 |
| O=c1c2ccccc2[nH]c2ccccc12 | = | 77000 |
| O=C(NCCN1CCCCC1)c1ccc(NCCN2CCCCC2)c2c(O)c3ccccc3nc12 | = | 1200 |
| CN(C)CCCNC(=O)c1ccc(NCCCN(C)C)c2c(O)c3ccccc3nc12 | = | 335 |
| CN(C)CCNC(=O)c1ccc(NCCN(C)C)c2c(O)c3cc([N+](=O)[O-])ccc3nc12 | = | 175 |
| COc1ccc2nc3c(C(=O)NCCN(C)C)ccc(NCCN(C)C)c3c(O)c2c1 | = | 490 |
| Nc1ccc2c(O)c3ccc(N)cc3nc2c1 | > | 100000 |
| O=C(NCCN1CCOCC1)c1ccc(NCCN2CCOCC2)c2c(O)c3ccccc3nc12 | = | 1250 |
| O=C1c2c(O)ccc(O)c2C(=O)c2c(NCCNCCO)ccc(NCCNCCO)c21 | = | 2.65 |
| CN(C)CCNC(=O)c1ccc(NCCN(C)C)c2c(O)c3cc(O)ccc3nc12 | = | 640 |
| CCN(CC)CCNC(=O)c1ccc(NCCN(CC)CC)c2c(O)c3ccccc3nc12 | = | 1250 |

----------
experimental protocol: Partition coefficient (logP)
Format: physicochemical
condition parameters: octanol/water
measurement label: logP

| entry smiles | numeric readout |
| --- | --- |
| O=C(NCCN1CCCCC1)c1ccc(NCCN2CCCCC2)c2c(O)c3ccccc3nc12 | 7.73 |
| CN(C)CCNC(=O)c1ccc(NCCN(C)C)c2c(O)c3cc(O)ccc3nc12 | 4.77 |
| CN(C)CCNC(=O)c1ccc(NCCN(C)C)c2c(=O)c3ccccc3[nH]c12 | 5.12 |
| CN(C)CCNC(=O)c1ccc(N(C)CCN(C)C)c2c(O)c3ccccc3nc12 | 4.21 |
| CN(C)CCNC(=O)c1ccc(NCCN(C)C)c2c(O)c3cc([N+](=O)[O-])ccc3nc12 | 5.68 |
| O=C(NCCN1CCOCC1)c1ccc(NCCN2CCOCC2)c2c(O)c3ccccc3nc12 | 4.42 |
| O=C(NCCNCCO)c1ccc(NCCNCCO)c2c(O)c3ccccc3nc12 | 3.15 |
| CCN(CC)CCNC(=O)c1ccc(NCCN(CC)CC)c2c(O)c3ccccc3nc12 | 7.25 |
| CN(C)CCCNC(=O)c1ccc(NCCCN(C)C)c2c(O)c3ccccc3nc12 | 5.76 |
| CN(C)CCNC(=O)c1ccc(NCCNCCO)c2c(O)c3ccccc3nc12 | 4.09 |
| COc1ccc2nc3c(C(=O)NCCN(C)C)ccc(NCCN(C)C)c3c(O)c2c1 | 5.32 |

----------
Listed here are compounds together with their documented log10 Q.
Tested on: Calf thymus DNA
experimental protocol: Inhibitory concentration against ethidium:Calf thymus DNA(0.1:1) binding at pH 5
Format: nucleic-acid assay
condition parameters: Bos taurus
measurement label: log10 Q (log10 of the value in µM)

| entry smiles | target entity | numeric readout |
| --- | --- | --- |
| CCN(CC)CCNC(=O)c1ccc(NCCN(CC)CC)c2c(O)c3ccccc3nc12 | Calf thymus DNA | 1.43 |
| Cn1cc(NC(=O)c2cc(NC(=O)c3cc(NC=O)cn3C)cn2C)cc1C(=O)NCCC(=N)N | Calf thymus DNA | 1.60 |
| O=C(NCCN1CCOCC1)c1ccc(NCCN2CCOCC2)c2c(O)c3ccccc3nc12 | Calf thymus DNA | 0.68 |
| CN(C)CCNC(=O)c1ccc(NCCN(C)C)c2c(O)c3cc(O)ccc3nc12 | Calf thymus DNA | 0.68 |
| COc1ccc2nc3c(C(=O)NCCN(C)C)ccc(NCCN(C)C)c3c(O)c2c1 | Calf thymus DNA | 0.76 |
| CN(C)CCNC(=O)c1ccc(NCCNCCO)c2c(O)c3ccccc3nc12 | Calf thymus DNA | 0.62 |
| Nc1ccc2c(O)c3ccc(N)cc3nc2c1 | Calf thymus DNA | 2.53 |
| N=C(N)c1ccc(/N=N/Nc2ccc(C(=N)N)cc2)cc1 | Calf thymus DNA | 0.95 |
| O=C(NCCNCCO)c1ccc(NCCNCCO)c2c(O)c3ccccc3nc12 | Calf thymus DNA | 0.51 |
| CN(C)CCNC(=O)c1ccc(NCCN(C)C)c2c(O)c3cc([N+](=O)[O-])ccc3nc12 | Calf thymus DNA | 0.32 |
| CN(C)CCNC(=O)c1ccc(N(C)CCN(C)C)c2c(O)c3ccccc3nc12 | Calf thymus DNA | 1.15 |
| Nc1ccc2cc3ccc(N)cc3nc2c1 | Calf thymus DNA | 1.30 |
| CN(C)CCNC(=O)c1ccc(NCCN(C)C)c2c(=O)c3ccccc3[nH]c12 | Calf thymus DNA | 0.52 |
| CN(C)CCCNC(=O)c1ccc(NCCCN(C)C)c2c(O)c3ccccc3nc12 | Calf thymus DNA | 0.68 |
| O=C1c2c(O)ccc(O)c2C(=O)c2c(NCCNCCO)ccc(NCCNCCO)c21 | Calf thymus DNA | -0.47 |
| O=C(NCCN1CCCCC1)c1ccc(NCCN2CCCCC2)c2c(O)c3ccccc3nc12 | Calf thymus DNA | 0.64 |
| COc1cc(NS(C)(=O)=O)ccc1Nc1c2ccccc2nc2ccccc12 | Calf thymus DNA | 0.58 |
| c1ccc2nc3ccccc3cc2c1 | Calf thymus DNA | 1.38 |

----------
System: L1210
experimental protocol: Cytotoxic potency required to inhibit L1210 cell growth by 50% after cell drug contact for 48 hrs
Assay type: functional, cell-based
condition parameters: Mus musculus, L1210, 48 h
measurement label: log10 IC50 (log10 of the value in nM)

| entry smiles | log10 IC50 |
| --- | --- |
| Nc1ccc2c(O)c3ccc(N)cc3nc2c1 | 4.54 |
| O=C(NCCN1CCOCC1)c1ccc(NCCN2CCOCC2)c2c(O)c3ccccc3nc12 | 2.64 |
| O=C(NCCNCCO)c1ccc(NCCNCCO)c2c(O)c3ccccc3nc12 | 3.60 |
| CN(C)CCNC(=O)c1ccc(NCCN(C)C)c2c(O)c3cc(O)ccc3nc12 | 2.15 |
| CCN(CC)CCNC(=O)c1ccc(NCCN(CC)CC)c2c(O)c3ccccc3nc12 | 3.52 |
| COc1ccc2nc3c(C(=O)NCCN(C)C)ccc(NCCN(C)C)c3c(O)c2c1 | 2.61 |
| CN(C)CCCNC(=O)c1ccc(NCCCN(C)C)c2c(O)c3ccccc3nc12 | 2.72 |
| CN(C)CCNC(=O)c1ccc(NCCN(C)C)c2c(=O)c3ccccc3[nH]c12 | 1.64 |
| CN(C)CCNC(=O)c1ccc(NCCNCCO)c2c(O)c3ccccc3nc12 | 1.54 |
| CN(C)CCNC(=O)c1ccc(NCCN(C)C)c2c(O)c3cc([N+](=O)[O-])ccc3nc12 | 2.66 |

----------
Listed here are compounds together with their documented Q.
System: Nucleic Acid
experimental protocol: Concentration required to give 50% fluorescence quenching of bound ethidium for [ethidium]: [poly(dA-dT)]2 DNA in ratio of 0.1:1 at pH 5
Assay type: nucleic-acid assay

| entry smiles | measurement qualifier | Q, µM |
| --- | --- | --- |
| CN(C)CCNC(=O)c1ccc(NCCN(C)C)c2c(=O)c3ccccc3[nH]c12 | = | 3.1 |
| CN(C)CCNC(=O)c1ccc(NCCN(C)C)c2c(O)c3cc([N+](=O)[O-])ccc3nc12 | = | 1.8 |
| O=C1c2c(O)ccc(O)c2C(=O)c2c(NCCNCCO)ccc(NCCNCCO)c21 | = | 0.32 |
| Nc1ccc2cc3ccc(N)cc3nc2c1 | = | 24 |
| Nc1ccc2c(O)c3ccc(N)cc3nc2c1 | > | 400 |
| COc1ccc2nc3c(C(=O)NCCN(C)C)ccc(NCCN(C)C)c3c(O)c2c1 | = | 5.3 |
| c1ccc2nc3ccccc3cc2c1 | = | 26 |
| O=C(NCCN1CCOCC1)c1ccc(NCCN2CCOCC2)c2c(O)c3ccccc3nc12 | = | 3.7 |
| CCN(CC)CCNC(=O)c1ccc(NCCN(CC)CC)c2c(O)c3ccccc3nc12 | = | 19 |
| O=C(NCCN1CCCCC1)c1ccc(NCCN2CCCCC2)c2c(O)c3ccccc3nc12 | = | 3.4 |
| CN(C)CCNC(=O)c1ccc(NCCNCCO)c2c(O)c3ccccc3nc12 | = | 3.8 |
| CN(C)CCNC(=O)c1ccc(N(C)CCN(C)C)c2c(O)c3ccccc3nc12 | = | 13 |
| COc1cc(NS(C)(=O)=O)ccc1Nc1c2ccccc2nc2ccccc12 | = | 25 |
| Cn1cc(NC(=O)c2cc(NC(=O)c3cc(NC=O)cn3C)cn2C)cc1C(=O)NCCC(=N)N | = | 1.6 |
| O=C(NCCNCCO)c1ccc(NCCNCCO)c2c(O)c3ccccc3nc12 | = | 2.6 |
| CN(C)CCNC(=O)c1ccc(NCCN(C)C)c2c(O)c3cc(O)ccc3nc12 | = | 4.4 |
| O=c1c2ccccc2[nH]c2ccccc12 | > | 500 |
| CN(C)CCCNC(=O)c1ccc(NCCCN(C)C)c2c(O)c3ccccc3nc12 | = | 3.2 |
| N=C(N)c1ccc(/N=N/Nc2ccc(C(=N)N)cc2)cc1 | = | 5 |
